Cited source: paper PMC10397247

- subject.of.test: T1, 4H717-bA
- T1 chain: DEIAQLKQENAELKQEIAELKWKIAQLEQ
- experiment: two-hybrid library CCNG1;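 also: natural log of median RNA to DNA barcode read ratio; higher means stronger binding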
property.name: interaction score
Answers are plain numbers.

Recorded interaction score, per entry:
binder	interaction score
DEIAQLEQKIAELKQEIAELKWENAQLEQ [4H331-bA]	-1.06
DKIAQLKQENAELEQKIAELKWEIAQLEQ [4H2729-bA]	-1.35
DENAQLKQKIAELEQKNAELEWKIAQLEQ [4H1845-bA]	-0.827

Shifting focus to the binder that follows.
Enquiry: Requested field: interaction score. Item: DKNAQLEQEIAELKQKNAELEWEIAQLEQ [4H3185-bA]
Return: -1.46
